# System: Ca9-22
# method: Antiproliferative activity against human Ca9-22 cells assessed as reduction in cell viability measured after 48 hrs by alamar blue dye based spectrofluorometry
# Format: functional
# particulars: Ca9-22, 48 h
value-type: IC50

O=C(NO)c1ccc(CN2CCC3(CC2)CN(C(=O)c2ccccc2)c2ccccc23)cc1    > 1000 µM

Please give IC50 for each item listed below.
1. CN1CC2(CCN(Cc3ccc(C(=O)NO)cc3)CC2)c2ccccc21
2. O=C(NO)c1ccc(CC(=O)N2CCC3(CC2)CN(Cc2ccccc2)c2ccccc23)cc1
3. O=C(NO)c1ccc(COC(=O)N2CCC3(CC2)CN(Cc2ccccc2)c2ccccc23)cc1
4. O=C(NO)c1ccc(CNC(=O)N2CCC3(CC2)CN(Cc2ccccc2)c2ccccc23)cc1
5. O=C(NO)c1ccc(CN2CCC3(CC2)CN(Cc2ccccc2)c2ccccc23)cc1

Response:
1. > 1000 µM
2. > 1000 µM
3. > 1000 µM
4. 55 µM
5. 19 µM

---

Let's go through some IC50 measurements on UniProt:Q13547 together.
Sequence (Q13547 whole entry): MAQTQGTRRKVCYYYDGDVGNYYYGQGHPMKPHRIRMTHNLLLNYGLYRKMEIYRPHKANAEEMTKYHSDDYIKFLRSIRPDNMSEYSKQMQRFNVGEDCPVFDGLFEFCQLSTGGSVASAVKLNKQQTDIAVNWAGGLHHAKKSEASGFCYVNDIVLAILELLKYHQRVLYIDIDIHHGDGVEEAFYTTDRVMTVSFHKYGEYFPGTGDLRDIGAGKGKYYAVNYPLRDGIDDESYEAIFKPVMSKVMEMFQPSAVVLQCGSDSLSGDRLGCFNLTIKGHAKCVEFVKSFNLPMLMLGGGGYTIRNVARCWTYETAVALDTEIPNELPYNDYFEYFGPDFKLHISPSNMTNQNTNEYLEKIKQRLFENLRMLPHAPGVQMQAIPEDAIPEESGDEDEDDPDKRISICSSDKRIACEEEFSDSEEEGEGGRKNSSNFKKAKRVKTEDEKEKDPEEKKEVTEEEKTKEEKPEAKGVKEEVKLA
Numbers only, in µM.

Please give IC50 for each item listed below.
1. O=C(NO)c1ccc(CN2CCC3(CC2)CN(C(=O)c2ccccc2)c2c(-c4ccccc4)cccc23)cc1
2. O=C(NO)c1ccc(CC(=O)N2CCC3(CC2)CN(Cc2ccccc2)c2ccccc23)cc1
3. O=C(NO)c1ccc(CN2CCC3(CC2)CN(Cc2ccccc2)c2ccccc23)cc1

Response:
1. 4.7
2. 10.2
3. 6.5

---

# method: Cytotoxicity against mouse NIH3T3 cells assessed as reduction in cell viability measured after 24 hrs by neutral red uptake assay
# Format: cell-based
# particulars: read-out: TC50
value-type: CC50 at 24 h (µM)
Numbers only, in µM.

Use these answered entries as a reference point.
CN1CC2(CCN(Cc3ccc(C(=O)NO)cc3)CC2)c2ccccc21    24
O=C(NO)c1ccc(CN2CCC3(CC2)CN(Cc2ccccc2)c2ccccc23)cc1    40

From here, focus on the item given below.
Request: CC50 at 24 h for `O=C(NO)c1ccc(COC(=O)N2CCC3(CC2)CN(Cc2ccccc2)c2ccccc23)cc1` ?
Response: 40
